Test system: Pseudomonas aeruginosa expressing AmpC (CL5701)
Experiment: Antibiotic activity: growth inhibitory concentration (OD600), Pseudomonas aeruginosa CL5701
Format: cell-based
Details: lowest concentration inhibiting 95% of bacterial growth; in the presence of β lactamase inhibitor Relebactam 4 μg/mL; 35±2° C. for 22 hours; tested range 100 μM to 0.098 μM
Description: Antibiotic Activity: Determination of Growth Inhibitory Concentration The concentrations of compounds required to inhibit the growth of various strains of bacteria were determined in an assay that assessed bacterial growth by measuring optical density at 600 nm (OD600). […] At the end of the incubation, absorbance at 600 nm was determined using a spectrophotometer. […]
Reported PA_CL5701 MITC95 values for the following compounds.
Please respond with the number in µM and leave the unit unwritten.

Previously resolved entries follow.
- Compound: "C[C@@H]1[C@H](NC(=O)/C(=N\\O[C@@H](COc2ccc(-c3cn(CCCN)[n+](C)c3)cc2)C(=O)O)c2csc(N)n2)C(=O)N1S(=O)(=O)[O-] [Example 9]"
  Unit Abbreviation: "µM"
  PA_CL5701 MITC95: 6.25
- Compound: "Cn1c(-c2ccc(OC[C@H](O/N=C(\\C(=O)N[C@@H]3C(=O)N(OS(=O)(=O)O)C3(C)C)c3csc(N)n3)C(=O)O)cc2)cn(CC(O)CN)c1=N (single isomer, unassigned) [Example 56]"
  Unit Abbreviation: "µM"
  PA_CL5701 MITC95: 3.125
- Compound: "CC1(C)[C@H](NC(=O)/C(=N\\O[C@@H](COc2ccc(C3CN=C(NCCN)N3)cc2)C(=O)O)c2csc(N)n2)C(=O)N1OS(=O)(=O)O (some centres unmarked) [Example 60]"
  Unit Abbreviation: "µM"
  PA_CL5701 MITC95: 3.125
- Compound: "C[n+]1cc(-c2ccc(OCC(C)(O/N=C(\\C(=O)N[C@@H]3C(=O)N(OS(=O)(=O)O)C3(C)C)c3csc(N)n3)C(=O)O)cc2)cn1CCCN (single isomer, unassigned) [Example 23A, 2,2,2-trifluoroacetate]"
  Unit Abbreviation: "µM"
  PA_CL5701 MITC95: 3.125

Next, consider the following compound.
Assign PA_CL5701 MITC95 to the following record: CC1(C)[C@H](NC(=O)/C(=N\O[C@@H](COc2ccc(C(N)CNC3=NCCN3)cc2)C(=O)O)c2csc(N)n2)C(=O)N1OS(=O)(=O)O (some centres unmarked) [Example 61] 12.5
